System: T-cell
Experiment: CD25 cell surface staining on T-cells co-stimulated with anti-CD3 and anti-CD28 antibody (Biological Example 2)
Assay type: cell-based, human
Details: Homo sapiens, T-cell, fold change over baseline; 1 μM Cbl-b inhibitor; primary human total T-cells; read-out: CD25 staining Anti-CD3/Anti-CD28 stimulation
recorded-metric: fold induction at 1 µM

                    structure_smiles_string  experimental_value
0  COc1nc(C(=O)Nc2cccc([C@H](C)Sc3nncn3C)c2)cc2ccccc12         1.01 to 1.3
1  Cc1ccc(C(=O)Nc2cccc([C@H](C)Cc3nnc[nH]3)c2)nc1C1CC1        1.51 to 1.75
2  C[C@H](Sc1nncn1C)c1cccc(NC(=O)c2cccc(C3CC3)n2)c1        1.51 to 1.75
